assay: in vitro; details: African green monkey
property name: viability

Value of viability reported for the compound CCC(CC)COC(=O)[C@H](C)N[P@](=O)(OC[C@H]1O[C@@](C#N)(c2ccc3c(N)ncnn23)[C@H](O)[C@@H]1O)Oc1ccccc1 [Remdesivir] is > 90%

----------
assay: in vitro
property name: CC50

Recorded CC50 (compound COc1ccc2c(O[C@@H]3C[C@H]4C(=O)N[C@]5(C(=O)NS(=O)(=O)C6CC6)C[C@H]5/C=C\CCCCN(C)C(=O)[C@@H]4C3)cc(-c3nc(C(C)C)cs3)nc2c1C [PI0101, Simeprevir] ): > 10 µM

----------
Catalogue of CC50 readings, one per entry.
system: MRC5 cells; details: human
A number alone suffices; assume µM.

| molecule | measured value |
| --- | --- |
| O=[As]c1ccc(NS(=O)(=O)c2ccc(F)cc2)cc1 (stereo not shown) | 13.9 |

Looking up COc1ccc(S(=O)(=O)Nc2ccc([As]=O)cc2)cc1 (stereo not shown) , I see its CC50 listed as 14

Looking up CCC(CC)COC(=O)[C@H](C)N[P@](=O)(OC[C@H]1O[C@@](C#N)(c2ccc3c(N)ncnn23)[C@H](O)[C@@H]1O)Oc1ccccc1 , I see its CC50 listed as 30.7

Field CC50 (entry O=[As]c1ccc(NS(=O)(=O)c2ccc(C(F)(F)F)cc2)cc1 (stereo not shown) ) reads 6.37
